test system: HCC1143; assay: normalised response (% of control), CellTiter-Glo; higher = more viable cells (100 = DMSO, 0 = benzethonium chloride kill control); conditions: incubation time: 72 h
Assign met to entries whose normalised response meets or exceeds 80%; assign not met to the rest.

Here's what some known entries look like.
* CS(=O)(=O)OCCCCOS(C)(=O)=O [Busulfan] (100000 nM) | met
* CS(=O)(=O)CCNCc1ccc(-c2ccc3ncnc(Nc4ccc(OCc5cccc(F)c5)c(Cl)c4)c3c2)o1 [Lapatinib] (1000 nM) | met
* CC(=O)O[C@H]1C(=O)[C@@]2(C)[C@H]([C@H](OC(=O)c3ccccc3)[C@]3(O)C[C@H](OC(=O)[C@H](O)[C@@H](NC(=O)c4ccccc4)c4ccccc4)C(C)=C1C3(C)C)[C@]1(OC(C)=O)CO[C@@H]1C[C@@H]2O [Paclitaxel] (1000 nM) | not met
* O=c1[nH]cc(F)c(=O)[nH]1 [Fluorouracil] (10000 nM) | not met
* CC(C)(C)c1cc(NC(=O)Nc2ccc(-c3cn4c(n3)sc3cc(OCCN5CCOCC5)ccc34)cc2)no1 [Quizartinib] (1000 nM) | met

Would you kindly look at the next entry?
Dear colleague, could you confirm whether CCOc1cc2ncc(C#N)c(Nc3ccc(OCc4ccccn4)c(Cl)c3)c2cc1NC(=O)/C=C/CN(C)C [Neratinib] (1000 nM) has normalised response at or above 80%?
not met
